# TEST_TARGET: HCV Δ21 NS5b polymerase (Hepatitis C virus genotype 1b (isolate Con1) (HCV))
# EXPERIMENT_DESCRIPTION: HCV IC50 determination, NS5b polymerase assay
# Format: biochemical
# PROTOCOL_CONDITIONS: wild type or S282T mutant enzyme not specified, nucleoside triphosphates
# Procedure: Assay Protocol: Either wild type or S282T (Migliaccio, et al., J. Biol. Chem. 2003, 49164-49170; Klumpp, et al., J. Biol. Chem. 2006, 3793-3799) mutant polymerase enzyme was used in this assay. […] Plates were then counted on TopCount to assess the level of product synthesis over background controls. The IC50 value is determined using Prism fitting program.
Readings of IC50 for the listed molecules

COMPOUND_STRUCTURE	TEST_TARGET	UNIT_DESCRIPTOR	IC50
C[C@@]1(O)[C@H](O)[C@@H](COP(=O)(O)OP(=O)(O)OP(=O)(O)O)O[C@@]1(C#N)n1ccc(=O)[nH]c1=O	HCV Δ21 NS5b polymerase (Hepatitis C virus genotype 1b (isolate Con1) (HCV))	µM	27
C[C@@]1(O)[C@H](O)[C@@H](COP(=O)(O)OP(=O)(O)OP(=O)(O)O)O[C@@]1(C#N)n1ccc(N)nc1=O	HCV Δ21 NS5b polymerase (Hepatitis C virus genotype 1b (isolate Con1) (HCV))	µM	18

Hello, the source for this data is patent US8877733B2, in case you need it.
